B1: TPR t1 (parent)
chain: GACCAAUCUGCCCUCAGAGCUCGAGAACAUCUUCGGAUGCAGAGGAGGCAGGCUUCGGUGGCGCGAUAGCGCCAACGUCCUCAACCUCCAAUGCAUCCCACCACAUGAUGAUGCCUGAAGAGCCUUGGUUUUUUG

- Variants of: B1
- procedureSummary: polymerase ribozyme fitness, log enrichment relative to wild type (log ratio); higher = more active; in vitro selection for triplet polymerase activity
The reader will find reported polymerase ribozyme fitness (log ratio) values listed item by item below.
In your answer, state the number alone without any accompanying words.

querySequence	endpointLabel	quantitativeReadout
GACCAAUCUGCGCUCAGAGCUCGAGAAGAUCUUCGGUUGCAGAGGAGGCAGGCUUCGGUGGCGCGAUAGCGUCAACGUCCUCAACCUCCAAUGCAUCCCACCACAUGAUUAUGCCUGAAGAGCCUUGGUUUUUUG	polymerase ribozyme fitness (log ratio)	-0.76

Shifting focus to the variant that follows.
I am curious: what polymerase ribozyme fitness (log ratio) value has been reported for GACCAAUCUGCCCUCAGAGCUCGAGAACAUCUUCGGAUGCAGAGGUGGCAGGCUUCAGUGGCGCGAUAGCGCCAACGUGCUCAACCUCCAAUGCAUCCCACCACAUGAUGAUGCCUGAAGAGCCUUGGUUUUUUG ?
-2.59

Reference for the values: the RNAGym collection of RNA variant scans (doi:10.1073/pnas.2313332121)
